# Bliss excess listing for each entry below
System: D-283MED (Other Solid Carcinomas);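 further: after 72 h of two-drug dosing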
ASSAY: Bliss excess, mean over the matrix (fraction); higher = more synergy
Just the number, please, no unit after it.

Solved entries (count: 3):
CN(CCO)CC[C@H](CSc1ccccc1)Nc1ccc(S(=O)(=O)NC(=O)c2ccc(N3CCC([C@@H](O)c4ccccc4-c4ccc(Cl)cc4)CC3)cc2)cc1S(=O)(=O)C(F)(F)F [AZD4320] + Cn1cnc2c(F)c(Nc3ccc(Br)cc3Cl)c(C(=O)NOCCO)cc21 [Selumetinib] (first compound max 1 µM, 7x7, partner max 3 µM)
0.0172
C[C@@H](Oc1cc(-c2cnn(C3CCNCC3)c2)cnc1N)c1c(Cl)ccc(F)c1Cl [Crizotinib] + Cn1cnc2c(F)c(Nc3ccc(Br)cc3Cl)c(C(=O)NOCCO)cc21 [Selumetinib] (first compound max 10 µM, 7x7, partner max 10 µM)
-0.0049
Cn1cnc2c(F)c(Nc3ccc(Br)cc3Cl)c(C(=O)NOCCO)cc21 [Selumetinib] + CCN(CCO)CCCOc1ccc2c(Nc3cc(CC(=O)Nc4cccc(F)c4)[nH]n3)ncnc2c1 [AZD2811] (first compound max 10 µM, 7x7, partner max 1 µM)
-0.0022

Let us examine a further case.
# get_value(readout='Bliss excess', item= Cc1c2c(nn1C)CSCc1cc(n(C)n1)CSc1cc(c3ccccc3c1)OCCCc1c(C(=O)O)n(C)c3c-2c(Cl)ccc13 [AZD5991] + CCN(CCO)CCCOc1ccc2c(Nc3cc(CC(=O)Nc4cccc(F)c4)[nH]n3)ncnc2c1 [AZD2811] (first compound max 1 µM, 7x7, partner max 1 µM) ) 0.051

Each recorded value in this set is attributed to the supplement of paper PMC11061612.
